Where do these numbers come from? They come from ChEMBL document CHEMBL5380827.

# System: NCI-H226
# Measurement Protocol: Antiproliferative activity against human NCI-H226 cells assessed as reduction in cell viability measured for 5 days by celliter-glo assay
# Format: functional, cell-based
# Experimental Context: NCI-H226, 120 h

{"columns": ["Compound", "Display Unit", "IC50"],
 "data": [
  ["C=CC(=O)N1C[C@@H](Nc2ncc(F)cn2)[C@H](OCc2ccc(C(F)(F)F)cc2)C1 (racemic)", "nM", 28],
  ["C=C(F)C(=O)N1C[C@@H](n2cc(-c3cccnc3)nn2)[C@H](OCc2ccc(C(F)(F)F)cc2)C1", "nM", 131],
  ["C=CC(=O)N1CC[C@@H](OCc2ccc(C(F)(F)F)cc2)[C@H](Nc2ncc(F)cn2)C1 (racemic)", "nM", 246],
  ["C=CC(=O)N1C[C@@H](n2cc(-c3cccnc3)nn2)[C@H](OCc2ccc(C(F)(F)F)cc2)C1 (racemic)", "nM", 63],
  ["C=CC(=O)N1C[C@@H](Cc2ccccn2)[C@H](OCc2ccc(C(F)(F)F)cc2)C1 (racemic)", "nM", 186],
  ["C=CC(=O)N1C[C@@H](Nc2ncccn2)[C@H](OCc2ccc(C(F)(F)F)cc2)C1 (racemic)", "nM", 16],
  ["C=C(F)C(=O)N1C[C@@H](Nc2ncccn2)[C@H](OCc2ccc(C(F)(F)F)cc2)C1", "nM", 24],
  ["C=CC(=O)N1C[C@@H](n2cccn2)[C@H](OCc2ccc(C(F)(F)F)cc2)C1 (racemic)", "nM", 368],
  ["C=CC(=O)N1C[C@@H](n2ncccc2=O)[C@H](OCc2ccc(C(F)(F)F)cc2)C1 (racemic)", "nM", 150]
]}

----------
List of log10 IC50 values.
# Measurement Protocol: Inhibition of N-terminal His6-tagged human recombinant TEAD2 (217 to 447 residues)/ recombinant YBD (unknown origin) incubated for 5 hrs by TR-FRET assay
Endpoint Label: log10 IC50 (log10 of the value in nM)

{"columns": ["Molecule", "Observed Value"],
 "data": [
  ["C=CC(=O)N1C[C@@H](n2cc(-c3cccnc3)nn2)[C@H](OCc2cc(Cl)cc(C(F)(F)F)c2)C1 (racemic)", 2.36],
  ["CC#CC(=O)N1C[C@@H](n2cc(-c3cccnc3)nn2)[C@H](OCc2ccc(C(F)(F)F)cc2)C1", 2.66],
  ["C=CC(=O)N1C[C@@H](Cc2ccccn2)[C@H](OCc2ccc(C(F)(F)F)cc2)C1 (racemic)", 2.28],
  ["C=CC(=O)N1CC[C@@H](OCc2ccc(C(F)(F)F)cc2)[C@H](Nc2ncc(F)cn2)C1 (racemic)", 3.09],
  ["C=CC(=O)N1C[C@@H](n2ccnn2)[C@H](OCc2ccc(C(F)(F)F)cc2)C1 (racemic)", 1.90],
  ["C=CC(=O)N1C[C@@H](n2cc(-c3cccnc3)nn2)[C@H](OCc2ccc(C(F)(F)F)nc2)C1 (racemic)", 2.96],
  ["C=CC(=O)N1CCN(c2ncccn2)CC(OCc2ccc(C(F)(F)F)cc2)C1 (racemic)", 2.76],
  ["C=CC(=O)N1C[C@@H](n2cc(-c3cccnc3)nn2)[C@H](OCC23CC4CC(CC(C4)C2)C3)C1 (mixture of isomers)", 1.41],
  ["C=CC(=O)N1C[C@@H](Nc2ncccn2)[C@H](OCc2ccc(C(F)(F)F)cc2)C1 (racemic)", 0.95],
  ["C=CC(=O)N1C[C@@H](Nc2ncc(F)cn2)[C@H](OCc2ccc(C(F)(F)F)cc2)C1 (racemic)", 1.23],
  ["C=CC(=O)N1C[C@@H](n2cc(-c3cccnc3)nn2)[C@H](OCc2ccc(C(F)(F)F)cn2)C1 (racemic)", 2.36],
  ["C=CC(=O)N1C[C@@H](n2ncccc2=O)[C@H](OCc2ccc(C(F)(F)F)cc2)C1 (racemic)", 2.01],
  ["C=C(F)C(=O)N1C[C@@H](n2cc(-c3cccnc3)nn2)[C@H](OCc2ccc(C(F)(F)F)cc2)C1", 2.29],
  ["C=CC(=O)N1C[C@@H](n2cc(-c3ccncn3)nn2)[C@H](OCc2ccc(C(F)(F)F)cc2)C1 (racemic)", 2.01]
]}

----------
# Measurement Protocol: Inhibition of N-terminal His6-tagged human recombinant TEAD2 (217 to 447 residues)/ recombinant YBD (unknown origin) incubated for 5 hrs by TR-FRET assay
pIC50: −log10 of the molar value.
List of pIC50 values.
Endpoint Label: pIC50

{"columns": ["Molecule", "Endpoint Label", "Observed Value"],
 "data": [
  ["Cc1cccc([C@H](C)NC(=O)c2ccc3c(-c4ccc(C(F)(F)F)cc4)cccc3c2)n1", "pIC50", 7.40],
  ["C=CC(=O)N1C[C@@H](n2cc(-c3cccnc3)nn2)[C@H](OCC2CCC(F)(F)CC2)C1 (racemic)", "pIC50", 7.30],
  ["C=CC(=O)N1C[C@@H](n2cc(-c3cccnc3)nn2)[C@H](OCc2ccc(C(F)(F)F)cc2)C1 (racemic)", "pIC50", 7.31],
  ["C=C(C(=O)N1C[C@@H](n2cc(-c3cccnc3)nn2)[C@H](OCc2ccc(C(F)(F)F)cc2)C1)C(F)(F)F", "pIC50", 7.72],
  ["C=CC(=O)N1C[C@@H](OCc2ccc(C(F)(F)F)cc2)[C@H](c2ccc(S(C)(=O)=O)cc2)C1 (racemic)", "pIC50", 6.52],
  ["C=CC(=O)N1C[C@@H](n2cc(-c3cccnc3)nn2)[C@H](OCc2cc(C(F)(F)F)ccc2Cl)C1 (racemic)", "pIC50", 6.22],
  ["C=C(F)C(=O)N1C[C@@H](Nc2ncccn2)[C@H](OCc2ccc(C(F)(F)F)cc2)C1", "pIC50", 6.56],
  ["C=CC(=O)N1C[C@@H](n2cccn2)[C@H](OCc2ccc(C(F)(F)F)cc2)C1 (racemic)", "pIC50", 6.75]
]}
